Hello, the source for this data is patent US12649723B2, in case you need it.

Tested on: Tau-BiFC cells
Assay: Cell viability (cytotoxicity) in tau-BiFC cells, count of stained nuclei
Assay type: cell-based
Conditions: compound 10 μM; Forskolin-only group = 100% cell viability
observed property: Cell viability (% @10 μM)

Worked examples follow.
Cc1ccc(COc2ccc(NN=C(C#N)C#N)cc2C(F)(F)F)cc1 39.2%
N#CC(C#N)=NNc1ccc(OCCc2ccc(Cl)cc2)cc1 34.6%
N#CC(C#N)=NNc1ccc(NC(=O)c2cnc3ccccc3n2)nc1 145.3%
Cc1cnc(C(=O)Nc2ccc(NN=C(C#N)C#N)c(F)c2)cn1 62.1%

Turning now to a further molecule:
**Query** GET /values?readout=Cell viability (% @10 μM)&item= N#CC(C#N)=NNc1ccc(NC(=O)c2ccc(C(F)(F)F)cc2)nc1
**Result** 122%
